Exercise: for every item that follows, state its recorded GI50.
# Test system: LOX IMVI melanoma
# Test Name: NCI tumour cell line growth inhibition, 48 h

Would you mind giving GI50 for every molecule in the list below?
1. N=C(N)c1ccc(-c2ccc(-c3ccccc3)o2)o1
2. NC(CSC(c1ccccc1)(c1ccccc1)c1ccc(Br)cc1)C(=O)O (stereo not given)
3. Cc1nc(N(C)C)nc(-c2cccc(-c3ccn(CCN(C)C)n3)c2)c1C
4. C/C(=N\O)c1ccc(Nc2cc(-c3ccccc3)nc3c(O)cccc23)cc1
5. Nc1c(S(=O)(=O)O)cc2c(c1Cl)C(=O)c1ccccc1C2=O
6. CCOc1ccc(-n2cc(-c3ccc(N(C)C)cc3)[n+]3c2CCCCC3)cc1
7. CC/C(=C(/c1ccc(Cl)cc1)c1ccc(OCCCN(C)C)cc1)c1ccc(OC)cc1
8. COc1ccc(-n2cc(-c3ccc(F)cc3)[nH]c2=O)cc1OC

1700 nM
659 nM
> 20000 nM
6710 nM
> 100000 nM
359 nM
868 nM
> 100000 nM

Would you mind giving GI50 for every molecule in the list below?
1. COC(=O)/C=C/c1cc(OC)c2c(c1)[C@@H](C(=O)OC)[C@H](c1ccc(OC)c(OC)c1)O2
2. CCCCCCOc1ccc(/C=N/Nc2cc(C)nc3ccc(Br)cc23)cc1

1. 771 nM
2. 1530 nM
